Tested on: blood cancer cell lines
Experiment: CellTiter-Glo viability assay, human cell lines
Format: cell-based
Settings: viability, 72 hours, human cell lines, FIG. 5; read-out: IC50 of most of the blood cancer cell lines
Description: Dose-response curves were generated using the CellTiter-Glo® assay (Promega: G7570). BJ-tert, U2OS, MOLM13, THP1, Monomac, MMS1, KMS18, KMS11, MSTo, and H226, cells were seeded in triplicate in round bottom 96 well plates in the presence of varying concentrations of “Compound 12”. After 72 hours the number of viable cells in the cultures were measured using the CellTiter-Glo®. IC50 values were calculated using the Prism software (GraphPad: Prism 7 for Mac OS X). […]
pIC50: −log10 of the molar value.
property: pIC50

If you can, please state the reported pIC50 value of [2H]C([2H])([2H])Nc1nc(-c2cc(C(=O)N3CCN(Cc4ccc(Cl)cc4)CC3)c(Cl)cn2)cs1 . ~6.00
